Assayed system: TAK1-TAB1 fusion protein (Homo sapiens)
Construct: purchased Carna
Sequence (O43318 with tags, fused parts or gaps limits assumed): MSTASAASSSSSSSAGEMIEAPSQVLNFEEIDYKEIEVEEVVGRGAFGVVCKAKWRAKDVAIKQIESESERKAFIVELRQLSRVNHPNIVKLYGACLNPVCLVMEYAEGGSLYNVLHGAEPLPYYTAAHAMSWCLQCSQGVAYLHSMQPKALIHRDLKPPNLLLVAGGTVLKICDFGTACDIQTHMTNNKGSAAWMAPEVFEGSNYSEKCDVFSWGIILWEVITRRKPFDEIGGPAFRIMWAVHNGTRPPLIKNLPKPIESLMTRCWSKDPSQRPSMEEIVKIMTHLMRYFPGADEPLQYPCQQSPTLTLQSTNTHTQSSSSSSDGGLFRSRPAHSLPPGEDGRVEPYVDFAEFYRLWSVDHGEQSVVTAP
Assay details: TAK1 biochemical assay (AlphaScreen, GST-MAP2K7 substrate)
Measurement conditions: TAK1-TAB1 fusion protein, GST-MAP2K7 substrate; read-out: mean TAK1 IC50 (Col. A)
Structures can show the parent of a compound that is named as a salt.
Measurement label: IC50

Look over these answered cases.
// IC50 value for `CN(C)c1nc2cccc(-c3cc4c(-c5cnn([C@H]6CC[C@H](O)CC6)c5)cnc(N)c4o3)c2s1` : 1000 to 10000 nM

// IC50 value for `Nc1ncc(-c2cnn(C3CCN(C(=O)CCC4CCCCC4)CC3)c2)c2cc(-c3csc4cnccc34)oc12` : 1000 to 10000 nM

// IC50 value for COCc1nc2cccc(-c3cc4c(-c5cnn(C6CCN(C(C)=O)CC6)c5)cnc(N)c4o3)c2s1 [Example 348, trifluoroacetate] : < 100 nM

// IC50 value for `COc1ccc(COc2cccc(-c3cc4c(-c5cnn(C6CCN(C(C)=O)CC6)c5)cnc(N)c4o3)c2)cc1` : 1000 to 10000 nM

// IC50 value for `CC(=O)N1CCC(n2cc(-c3cnc(N)c4oc(-c5cccc(OCc6ccncc6)c5)cc34)cn2)CC1` : 100 to 1000 nM

Proceeding to the next compound to report its IC50.
// IC50 value for `CC(=O)N1CCC(n2cc(-c3cnc(N)c4oc(-c5c[nH]c6cc(F)ccc56)cc34)cn2)CC1` : 100 to 1000 nM
